The reader will find reported BrdU incorporation (inhibition of proliferation) values listed item by item below.
Test system: Jurkat
Experiment: BrdU incorporation (proliferation)
Format: cell-based, human
Design: key: 0 for no activity; 1 for a moderate inhibition; 2 for strong inhibition of proliferation
Details: 10uM, 48 h
Form field (numeric): enter value without unit.

Incoming: Need BrdU incorporation (inhibition of proliferation), item COc1cc2c(cc1OC)-c1c(Cl)c3nc4ccccc4nc3n1C(C)C2 (stereo not shown) [compound 12]
Outgoing: 2

Incoming: Try this compound too: CC1Cc2ccccc2-c2c(Cl)c3nc4ccccc4nc3n21 (stereo not shown) [compound 11]
Outgoing: 2

Incoming: Field entry: COc1cc2c(cc1OC)-c1c(Br)c3nc4ccccc4nc3n1C(C)C2 (stereo not shown) [compound 10]
Outgoing: 1

Incoming: // same read-out, input: CCC1Cc2cc(OC)c(OC)cc2-c2cc3nc4ccccc4nc3n21 (stereo not shown) [compound 13]
Outgoing: 2

====

Test system: Jurkat
Experiment: PI staining for cell cycle distribution
Type: cell-based, human
Design: key: 0 indicates no occurrence at all; 1 for weak; 2 for strong occurrence
Conditions: Jurkat 3 uM, 24 h
Listing: subG1 (generation of a subG1 peak indicative for DNA fragmentation) of selected compounds

Here are 4 compounds together with their reported answers.
{"compound": "COc1cc2c(cc1OC)-c1cc3nc4ccccc4nc3n1C(C)C2 (centres unmarked)", "experimental_value": 1}
{"compound": "CC1Cc2ccccc2-c2c(Cl)c3nc4ccccc4nc3n21 (centres unmarked)", "experimental_value": 0}
{"compound": "COc1cc2c(cc1OC)-c1c(Br)c3nc4ccccc4nc3n1C(C)C2 (centres unmarked)", "experimental_value": 0}
{"compound": "COc1cc2c(cc1OC)-c1c(Cl)c3nc4ccccc4nc3n1C(C)C2 (centres unmarked)", "experimental_value": 0}

Note: attention shifts to another entry.
Incoming: Returns the measured subG1 (generation of a subG1 peak indicative for DNA fragmentation) for the input compound. Input: CCC1Cc2cc(OC)c(OC)cc2-c2cc3nc4ccccc4nc3n21 (centres unmarked)
Outgoing: 0
